Every entry's value here was drawn from patent US20220064322A1.

Study target: human CD73 on the cell surface (293T/17-huCD73 cells) (human) (UniProt P21589)
Sequence (P21589 27-549): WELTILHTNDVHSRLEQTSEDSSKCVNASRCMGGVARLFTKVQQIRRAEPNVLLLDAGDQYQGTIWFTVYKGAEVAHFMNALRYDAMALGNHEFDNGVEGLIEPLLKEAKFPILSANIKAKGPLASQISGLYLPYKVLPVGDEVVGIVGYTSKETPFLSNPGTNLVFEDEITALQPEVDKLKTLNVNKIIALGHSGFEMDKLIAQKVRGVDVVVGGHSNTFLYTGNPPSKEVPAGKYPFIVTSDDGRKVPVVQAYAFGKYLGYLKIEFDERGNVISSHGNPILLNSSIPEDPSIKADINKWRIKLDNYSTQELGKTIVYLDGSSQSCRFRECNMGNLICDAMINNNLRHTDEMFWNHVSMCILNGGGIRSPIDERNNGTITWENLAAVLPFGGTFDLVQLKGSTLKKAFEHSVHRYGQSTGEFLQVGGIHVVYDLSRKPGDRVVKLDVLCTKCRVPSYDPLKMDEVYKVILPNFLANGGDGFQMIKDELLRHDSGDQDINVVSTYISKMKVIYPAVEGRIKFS
Assay details: cell-based or functional assay
What IC50, blockade of 5'exonuclease activity of U87-MG cells was measured for each of the following?

Enquiry: # query: IC50, blockade of 5'exonuclease activity of U87-MG cells of entry JB24H2L1 (antibody, human IgG1, kappa, V domains shown) VH: QVQLVQSGAEVKKPGASVKMSCKASGYTFTDYNMHWVRQSPGKSLEWIGYIKPHNAGTTYNPKFEGRATLTVDTSASTAYMELSSLRSEDTAVYYCVRSDFLYWYFDVWGQGTTVTVSS VL: DIQMTQSPSSLSASVGDRVTITCTASSSVSSSYLHWYQQKPGKAPKLLIYSTSNLASGVPSRFSGSGSGTDFTLTISSLQPEDFATYYCHQYHRSPLTFGAGTKLEIKR
Return: 0.474 nM

Enquiry: # query: IC50, blockade of 5'exonuclease activity of U87-MG cells of entry JB24Chi (antibody, human IgG1, kappa, V domains shown) VH: QVQLQQSGLELVKPGASVKMSCKASGYTFTDYNMHWVKQSHGKSLEWIGYIKPHNGGTTYNPKFEGKATLTVNKSSSTAYMELRSLTSEDSAVYYCVRCDFLYWYFDVWGTGTTVTVSS VL: DIVMTQSPAIMSASLGERVTMTCTASSSVSSSYLHWYQQKPGSSPKLWIYSTSNLASGVPGRFSGSGSGTSYSLTISSMEAEDAATYYCHQYHRSPLTFGAGTKLEMKR
Return: 0.053 nM

Enquiry: # query: IC50, blockade of 5'exonuclease activity of U87-MG cells of entry JB94H2L1 (antibody, human IgG1, kappa, V domains shown) VH: QVQLVQSGAEVKKPGASVKVSCKASGYTFTSYWMHWVRQRPGQGLEWMGYINPSSGYTKSNQKFKDRVTLTADTSTSTAYMELSSLRSEDTAVYYCGRWLLSAWFAYWGQGTLVTVSS VL: DIQMTQSPSSLSASVGDRVTITCKASQDINTYLSWFQQKPGKAPKSLIYRSNILVDGVPSRFSGSGSGQDFTLTISSLQPEDFAIYYCLQYDDFPYTFGQGTKLEIKR
Return: 0.214 nM
